Just for reference, ChEMBL document CHEMBL1127561 is where these values come from.

# Target Entity: Aldo-keto reductase family 1 member B1 (Bos taurus, UniProt P16116)
# Test Name: In vitro inhibition of aldose reductase activity in a partially purified bovine lens preparation
Metric: IC50
// return the numeric value with its unit appended

COc1cc2c(cc1Br)C1(CC(=O)NC1=O)C(=O)N(Cc1ccc(Br)cc1F)C2=O (centres undefined) ... 0.028 µM
O=C1CC2(C(=O)N1)C(=O)N(Cc1ccc(Br)cc1F)C(=O)c1ccc(C(F)(F)F)cc12 (centres undefined) ... 0.038 µM
O=C1CC2(C(=O)N1)C(=O)N(Cc1cccc(C(F)(F)F)c1)C(=O)c1ccccc12 (centres undefined) ... 0.017 µM
O=C1C[C@]2(C(=O)N1)C(=O)N(Cc1ccc(Br)cc1F)C(=O)c1ccc(F)cc12 ... 0.032 µM
O=C1CC2(C(=O)N1)C(=O)N(Cc1ccc(Br)cc1F)C(=O)c1ccc(F)cc12 (centres undefined) ... 0.014 µM
O=C1C[C@@]2(C(=O)N1)C(=O)N(Cc1ccc(Br)cc1F)C(=O)c1ccccc12 ... 0.0097 µM
Cc1cccc(CN2C(=O)c3ccccc3C3(CC(=O)NC3=O)C2=O)c1 (centres undefined) ... 0.025 µM
O=C1CC2(C(=O)N1)C(=O)N(Cc1ccc(Br)cc1F)C(=O)c1cc(Cl)ccc12 (centres undefined) ... 0.033 µM
O=C1CC2(C(=O)N1)C(=O)N(Cc1ccc(Br)cc1F)C(=O)c1cccc(F)c12 (centres undefined) ... 0.021 µM
O=C1CC2(C(=O)N1)C(=O)N(Cc1ccc(C(F)(F)F)cc1)C(=O)c1ccccc12 (centres undefined) ... 0.025 µM

Tell me the measured IC50 of COc1ccc2c(c1)C(=O)N(Cc1ccc(Br)cc1F)C(=O)C21CC(=O)NC1=O (centres undefined) , please.
0.037 µM

O=C1CC2(C(=O)N1)C(=O)N(Cc1ccc(Cl)c(Cl)c1)C(=O)c1ccccc12 (centres undefined) ?
0.022 µM

Request: O=C1CC2(C(=O)N1)C(=O)N(Cc1nc3cc(C(F)(F)F)ccc3s1)C(=O)c1ccccc12 (centres undefined)
0.022 µM

And the next one, O=C1C[C@]2(C(=O)N1)C(=O)N(Cc1ccc(Br)cc1F)C(=O)c1ccccc12 ?
1 µM

Would you mind doing O=C1CC2(C(=O)N1)C(=O)N(Cc1nc3cc(C(F)(F)F)ccc3s1)C(=O)c1ccc(F)cc12 (centres undefined) as well?
0.026 µM

Request: O=C1CC2(C(=O)N1)C(=O)N(Cc1ccc(Br)cc1)C(=O)c1ccccc12 (centres undefined)
0.022 µM

What about COc1ccc2c(c1F)C1(CC(=O)NC1=O)C(=O)N(Cc1ccc(Br)cc1F)C2=O (centres undefined) ?
0.03 µM

Can you handle O=C1CC2(C(=O)N1)C(=O)N(Cc1ccc(Br)cc1F)C(=O)c1c(F)cccc12 (centres undefined) next?
0.023 µM

O=C1CC2(C(=O)N1)C(=O)N(Cc1ccc(Br)cc1F)C(=O)c1cc(F)ccc12 (centres undefined) , same question.
0.02 µM
